Origin of measurements: PubChem BioAssay

tested on: Plasmodium falciparum Sir2 (PF13_0152, Sir2A); experiment: pfSir2 binders on small-molecule microarrays, primary screen, biochemical, small-molecule microarray, 635 nm fluorescence (AID 1098); conditions: small-molecule microarray binding, fluorescence 635 nm; higher = more signal;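 note: score merges spot fluorescence intensity with its signal-to-noise ratio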
The threshold is inclusive: composite z-score of exactly 0.9 counts as fulfilled; values below receive not fulfilled.

Below, 8 compounds whose answers are already recorded.
compound=COCCOC(=O)N1C(=O)[C@@]2(c3cc(C#Cc4ccc(OC)cc4)ccc31)[C@H](c1ccc(OCCO)cc1)N1[C@H](c3ccccc3)[C@H](c3ccccc3)OC(=O)[C@H]1[C@@H]2C(=O)N1CCN(c2ncccn2)CC1 tested_system="Plasmodium falciparum Sir2 (PF13_0152, Sir2A)" class_label="not fulfilled"
compound=O=C1N[C@@H](Cc2ccccc2)C(=O)N2[C@@H]1C[C@@H](C(=O)O)[C@H]2c1cccc(OCCO)c1 tested_system="Plasmodium falciparum Sir2 (PF13_0152, Sir2A)" class_label=fulfilled
compound=CC(C)(C)OC(=O)CC[C@]1(C(=O)N2CCOCC2)N=C(c2ccc(OCCCO)cc2)O[C@H]1c1ccccc1N=[N+]=[N-] tested_system="Plasmodium falciparum Sir2 (PF13_0152, Sir2A)" class_label=fulfilled
compound="C=CC1(C(=O)OC)CC=C(C(=O)OC)CC1 (stereo not given)" tested_system="Plasmodium falciparum Sir2 (PF13_0152, Sir2A)" class_label="not fulfilled"
compound=Cc1ccc(S[C@]2(C(=O)NCCCN(C)C)CC(=O)N(Cc3ccccc3C(F)(F)F)[C@@H]2c2ccc(CO)cc2)cc1 tested_system="Plasmodium falciparum Sir2 (PF13_0152, Sir2A)" class_label="not fulfilled"
compound=Cc1ccc([C@@H]2C[C@@H](Sc3ccccc3)[C@H](C(=O)O)CN2S(=O)(=O)c2ccc(C)cc2)cc1 tested_system="Plasmodium falciparum Sir2 (PF13_0152, Sir2A)" class_label=fulfilled
compound="O=C1OCCC/C=C\\[C@H]2OC34C=CCN(Cc5ccccc5)C(=O)[C@H]3N(CCCO)C(=O)[C@@H]4C12 (stereo not given in full)" tested_system="Plasmodium falciparum Sir2 (PF13_0152, Sir2A)" class_label=fulfilled
compound=CN(C)CCCCCCNC(=O)[C@H]1C[C@H]2C(=O)N3CCC[C@H]3C(=O)N2[C@H]1c1ccc(O)cc1 tested_system="Plasmodium falciparum Sir2 (PF13_0152, Sir2A)" class_label=fulfilled

Turning now to a further compound:
Query :: // inclusive: composite z-score at least 0.9? input: `C=C(CCCC)/C(=C/C[C@H](OC(=O)c1ccncc1)c1ccccc1OCCO)c1cnc2ccccc2c1`
Result :: not fulfilled

---

Reported z-score values are given for each entry in this list.
experiment: HepG2 liver cancer cell viability effects, profiling panel, resazurin fluorescence, 24 h, PK04 Diversity Set (AID 1172); conditions: higher = more signal; note: test concentration not given here
Answer as a number with no unit attached.

# annotated cases, reported z-score shown
molecule=O=C1O[C@@H](c2ccccc2)[C@@H](c2ccccc2)N2[C@@H](c3ccccc3OCCO)[C@]3(C(=O)Nc4ccccc43)[C@@H](C(=O)Nc3nc4ccccc4s3)[C@H]12 observed_result=-0.699
molecule=C#C[C@H](O[Si](C#Cc1ccc(Oc2ccccc2)cc1)(C(C)C)C(C)C)c1ccccc1 observed_result=-1.03

Query :: If you can, please state the reported z-score value of OCCCC1=CC(c2cccs2)N(Cc2cc3c(cc2Br)OCO3)CC1 (stereo not drawn) .
Result :: -0.429

---

test system: wheat germ agglutinin (Triticum aestivum), Alexa647-labelled; test: wheat germ agglutinin binders on compound microarrays, profiling panel, artefact control for SMM control-protein annotation, biochemical, small-molecule microarray, 635/667 nm fluorescence (AID 1140); details: WGA-A647 binding, 635 nm fluorescence, higher = more signal;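 note: score merges 667 nm feature emission with signal to noise over triplicate slides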
Reported composite z-score values are given for each entry in this list.
Answer as a number with no unit attached.

# annotated cases, reported composite z-score shown
compound=Cc1ccc(S[C@]2(C(=O)NCCCN(C)C)CC(=O)N(Cc3ccccc3C(F)(F)F)[C@@H]2c2ccc(CO)cc2)cc1 observed_result=0.427
compound=Cc1ccc(S[C@]2(C(=O)NCCCN(C)C)CC(=O)N(Cc3cc(C(F)(F)F)cc(C(F)(F)F)c3)[C@@H]2c2ccc(CO)cc2I)cc1 observed_result=0.0799
compound=C=CCN1C(=O)[C@]2(O[C@H](CCn3cc([C@H](O)c4ccccc4)nn3)[C@@H]([Si](C)(C)c3ccc(OC)cc3)[C@@H]2C)c2ccccc21 observed_result=0.417
compound=C=CCOC(=O)[C@H]1[C@@H]2C(=O)O[C@@H](c3ccccc3)[C@@H](c3ccccc3)N2[C@@H](c2ccc(OCCOC(=O)[C@@H]3C[C@@H]4C(=O)N[C@@H](CC(C)C)C(=O)N4[C@@H]3c3ccc(O)cc3)cc2)[C@]12C(=O)Nc1ccccc12 observed_result=0.232
compound=O=C1C[C@]2(c3ccc([N+](=O)[O-])cc3)C(=O)N(CC(F)(F)F)c3cc(CO)ccc3[C@H]2N1C1CCCCC1 observed_result=-0.288
compound=C=CCOC(=O)[C@H]1[C@@H]2C(=O)O[C@@H](c3ccccc3)[C@@H](c3ccccc3)N2[C@@H](c2ccc(OCCOC(=O)[C@H]3C[C@H]4C(=O)N[C@@H](CCCCN(C)C)C(=O)N4[C@H]3c3ccc(O)cc3)cc2)[C@]12C(=O)Nc1ccc(I)cc12 observed_result=0.784

Query :: If you can, please state the reported composite z-score value of O=C1NC(=O)C2C1C=CC(C(O)c1cc(C(F)(F)F)cc(C(F)(F)F)c1)N2Nc1ccccn1 (stereo not given) .
Result :: 0.574

Query :: If you can, please state the reported composite z-score value of `CC(C)C[C@@H]1NC(=O)[C@@H]2C[C@H](C(=O)O)[C@H](c3cccc(OCCO)c3)N2C1=O` .
Result :: 0.275

Query :: If you can, please state the reported composite z-score value of `COCCOC(=O)N1C(=O)[C@@]2(c3cc(C#Cc4ccc(OC)cc4)ccc31)[C@H](c1ccc(O)cc1)N1[C@H](c3ccccc3)[C@H](c3ccccc3)OC(=O)[C@H]1[C@@H]2C(=O)N1CCc2cc(OC)c(OC)cc2C1` .
Result :: 0.555

Query :: If you can, please state the reported composite z-score value of `C=C(CCCC)/C(=C/C[C@H](OC(C)=O)c1ccccc1OCCO)c1cc(C(=O)OC)ccc1OC` .
Result :: -0.4

Query :: If you can, please state the reported composite z-score value of `C=C(C(=O)CC[C@@H](OC(=O)c1cccnc1)c1ccccc1OCCO)C(C)C` .
Result :: 0.486

Query :: If you can, please state the reported composite z-score value of `O=C(NC1CC1)[C@@H]1c2ccccc2C(=O)N(Cc2ccccc2Cl)[C@H]1c1ccc(CO)cc1` .
Result :: 0.447

Query :: If you can, please state the reported composite z-score value of O=C1C2C=CC(C(O)CCc3ccccc3)N(Nc3ccccc3F)C2C(=O)N1c1ccccc1 (stereo not given) .
Result :: 0.548

Query :: If you can, please state the reported composite z-score value of `C=CC[C@@]12N=C(c3ccc(OCCCO)cc3)O[C@@H]1c1ccccc1N(C)C2=O` .
Result :: 0.65

Query :: If you can, please state the reported composite z-score value of `NC(=O)NCC#Cc1ccc2c(c1)[C@]1(C(=O)N2)[C@H](c2ccccc2OCCO)N2[C@H](c3ccccc3)[C@H](c3ccccc3)OC(=O)[C@H]2[C@@H]1C(=O)Nc1nc2ccccc2s1` .
Result :: 0.89

Query :: If you can, please state the reported composite z-score value of `O=C1C[C@@](C(=O)NCC(F)(F)F)(c2ccc([N+](=O)[O-])cc2)[C@@H](c2ccc(CO)cc2I)N1C1CCCCC1` .
Result :: 0.834

Query :: If you can, please state the reported composite z-score value of `COc1ccccc1CN1C(=O)c2ccccc2[C@@H](C(=O)NC2CC2)[C@@H]1c1ccc(CO)cc1` .
Result :: 0.85

Query :: If you can, please state the reported composite z-score value of `COc1ccc([C@H]2OC[C@@H]3C[C@@H](Cc4ccccc4)C(=O)N32)cc1` .
Result :: 0.208

Query :: If you can, please state the reported composite z-score value of `C=CCOC(=O)[C@@H]1[C@H]2C(=O)O[C@H](c3ccccc3)[C@H](c3ccccc3)N2[C@H](c2ccc(OCCOC(=O)[C@@H]3C[C@@H]4C(=O)NCC(=O)N4[C@@H]3c3ccc(O)cc3)cc2)[C@@]12C(=O)Nc1ccc(I)cc12` .
Result :: 0.86

Query :: If you can, please state the reported composite z-score value of `O=C1c2ccccc2[C@](Cc2ccccc2I)(C(=O)NCCN2CCOCC2)[C@H](c2ccc(CO)cc2)N1Cc1ccccc1Cl` .
Result :: 1.08

Query :: If you can, please state the reported composite z-score value of `COc1ccccc1CN1C(=O)c2ccccc2[C@@]2(Cc3ccccc3N(CC(C)C)C2=O)[C@@H]1c1ccc(CO)cc1` .
Result :: -0.219

Query :: If you can, please state the reported composite z-score value of `C=C(/C(=C/C[C@H](OC(C)=O)c1ccc(CO)o1)c1cc(C(=O)OC)ccc1OC)C(C)C` .
Result :: -1.24
